Reported hPPAR; Relative activity γ values for the following compounds.
target: human PPARγ2 (Homo sapiens, UniProt P37231); construct: with 182nd to 505th amino acids of human PPARγ2; expressed in transfected cells; host or cells: COS cells (African green monkey kidney); test: Gal4-human PPARγ2 chimera luciferase transfection assay in COS cells; format: cell-based; conditions: compound added at 1 μM, luciferase activity with rosiglitazone 1 μM given as 10.0, 16 hours
Sequence (P37231 182-505): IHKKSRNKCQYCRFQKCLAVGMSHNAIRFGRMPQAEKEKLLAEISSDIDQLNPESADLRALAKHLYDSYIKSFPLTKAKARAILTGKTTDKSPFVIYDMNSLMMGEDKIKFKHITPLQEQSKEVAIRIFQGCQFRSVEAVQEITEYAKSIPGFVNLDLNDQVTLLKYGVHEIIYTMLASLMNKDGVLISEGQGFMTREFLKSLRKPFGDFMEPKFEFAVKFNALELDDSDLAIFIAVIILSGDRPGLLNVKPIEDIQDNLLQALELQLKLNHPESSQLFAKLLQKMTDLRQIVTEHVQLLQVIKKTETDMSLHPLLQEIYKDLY

Answered examples (5):
                                   compound                               target_desc  result
0  O=C(O)c1ccccc1SCCCCCCN(Cc1ccc(Cl)cc1)c1nc2ccccc2o1 [Example 106]  human PPARγ2 (Homo sapiens, UniProt P37231)     2.4
1  O=C(O)c1cccc(OCCCCN(CCCOc2ccccc2)c2nc3ccccc3o2)c1 [Example 48]  human PPARγ2 (Homo sapiens, UniProt P37231)     2.1
2  CCCCCCCN(CCCOc1cccc(C(=O)O)c1)c1nc2ccccc2o1 [Example 19]  human PPARγ2 (Homo sapiens, UniProt P37231)     1.7
3  CCCCCN(CCCCOc1cccc(C(=O)O)c1)c1nc2ccccc2o1 [Example 47]  human PPARγ2 (Homo sapiens, UniProt P37231)     1.2
4  O=C(O)c1cccc(OCCCN(CCOc2ccc(Cl)cc2)c2nc3ccccc3o2)c1 [Example 6]  human PPARγ2 (Homo sapiens, UniProt P37231)     1.2

Data point: CCCN(CCCCSc1ccccc1C(=O)O)c1nc2ccccc2s1 [Example 110] ; hPPAR; Relative activity γ = 2.0

Data point: CCCCCCCCN(CCCCCS(=O)(=O)c1ccccc1C(=O)O)c1nc2ccccc2o1 [Example 122] ; hPPAR; Relative activity γ = 2.3

Data point: CCCCCCCCN(CCCOc1ccccc1C(=O)O)c1nc2ccccc2o1 [Example 27] ; hPPAR; Relative activity γ = 1.9

###

Reported hPPAR; Relative activity δ values for the following compounds.
biological target: human PPARδ (Homo sapiens, UniProt Q03181); construct: with 137th to 441st amino acids of human PPARδ; expressed in transfected cells; host or cells: COS cells (African green monkey kidney); test: Gal4-human PPARδ chimera luciferase transfection assay in COS cells; assay type: cell-based; settings: compound added at 1 μM, luciferase activity with GW501516 1 μM given as 10.0, 16 hours
Sequence (Q03181 137-441): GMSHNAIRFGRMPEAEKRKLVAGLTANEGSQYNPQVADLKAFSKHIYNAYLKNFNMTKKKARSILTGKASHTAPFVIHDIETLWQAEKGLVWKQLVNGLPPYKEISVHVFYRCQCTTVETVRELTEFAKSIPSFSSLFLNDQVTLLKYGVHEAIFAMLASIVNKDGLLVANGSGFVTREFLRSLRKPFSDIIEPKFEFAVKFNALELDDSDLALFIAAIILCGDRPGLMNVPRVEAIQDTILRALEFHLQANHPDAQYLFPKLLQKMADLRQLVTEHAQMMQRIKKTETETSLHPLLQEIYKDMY
Give a plain numeric answer without units written out.

Answered examples (2):
                                   compound  result
0  CCN(CCCCCSc1ccccc1C(=O)O)c1nc2ccccc2o1 [Example 99]     0.3
1  O=C(O)c1cccc(OCCCN(CCOc2ccc(Cl)cc2)c2nc3ccccc3o2)c1 [Example 6]     0.3

Continue with the next compound.
Data point: O=C(O)c1ccccc1SCCCCN(CCOc1ccccc1)c1nc2ccccc2s1 [Example 111] ; hPPAR; Relative activity δ = 0.3

###

target: human PPARα (Homo sapiens); construct: 166th to 467th amino acids of human PPARα; expressed in transfected cells; host or cells: COS cells (African green monkey kidney); assay: Gal4-human PPARα chimera luciferase transfection assay in COS cells; assay type: cell-based; settings: compound added at 1 μM, luciferase activity with WY14643 10 μM given as 10.0, 16 hours
Sequence (Q07869 166-467): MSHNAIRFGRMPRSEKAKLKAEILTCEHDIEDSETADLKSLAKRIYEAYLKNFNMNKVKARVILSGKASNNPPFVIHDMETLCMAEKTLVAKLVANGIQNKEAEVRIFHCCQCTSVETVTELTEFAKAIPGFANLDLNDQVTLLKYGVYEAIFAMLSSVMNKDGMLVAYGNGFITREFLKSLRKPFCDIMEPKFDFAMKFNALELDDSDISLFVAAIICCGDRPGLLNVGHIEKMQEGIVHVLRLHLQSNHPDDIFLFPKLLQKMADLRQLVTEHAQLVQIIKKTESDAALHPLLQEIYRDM
MEASUREMENT_KIND: hPPAR; Relative activity α
Give a plain numeric answer without units written out.

Answered examples (5):
In [3]: df
Out[3]:
                               entry_smiles  result
0  CCCCCCCN(CCSc1ccccc1C(=O)O)c1nc2ccccc2o1    18.9
1  O=C(O)c1ccccc1SCCCCN(CCCc1ccccc1)c1nc2ccccc2o1    11.6
2  CCCCCCCCN(CCCOc1cccc(C(=O)O)c1)c1nc2ccccc2o1    21.7
3  CCCCCCCCN(CCCCCSc1ccccc1C(=O)O)c1nc2ccccc2o1    20.3
4  CC(C)N(CCCCCSc1ccccc1C(=O)O)c1nc2ccccc2o1    12.4

Data point: CCCCCCN(CCCCOc1ccc(C(=O)O)cc1)c1nc2ccccc2o1 ; hPPAR; Relative activity α = 11.9

Data point: CN(CCCCSc1ccccc1C(=O)O)c1nc2ccccc2s1 ; hPPAR; Relative activity α = 12.1

Data point: CCCN(CCCCSc1ccccc1C(=O)O)c1nc2ccccc2s1 ; hPPAR; Relative activity α = 11.0

Data point: CCCN(CCCCCSc1ccccc1C(=O)O)c1nc2ccccc2o1 ; hPPAR; Relative activity α = 12.4

Data point: O=C(O)c1ccccc1SCCCCCN(Cc1ccc(Cl)cc1)c1nc2ccccc2o1 ; hPPAR; Relative activity α = 14.7

Data point: CCCCCCCCN(CCCOc1ccccc1C(=O)O)c1nc2ccccc2o1 ; hPPAR; Relative activity α = 13.7

Data point: O=C(O)c1ccccc1SCCCCCCN(Cc1ccc(Cl)cc1)c1nc2ccccc2o1 ; hPPAR; Relative activity α = 13.1

Data point: CCCCCCCCN(CCCCSc1ccccc1C(=O)O)c1nc2ccccc2o1 ; hPPAR; Relative activity α = 12.0

Data point: CCN(CCCCCSc1ccccc1C(=O)O)c1nc2ccccc2o1 ; hPPAR; Relative activity α = 16.8

Origin of measurements: patent US7301033B2
